- experiment: In vivo eye tissue levels 90 min after topical application in Tocrisolve emulsion (Examples 12-14)
- Set-up: species or system New Zealand albino rabbits
- test-parameters: male, New Zealand albino, aqueous humor; Table 2; rabbit eye, 90 min post topical 50 μL Tocrisolve emulsion, 250 μg CBD equivalent; read-out: Concentration of CBD-Val-HS in Aqueous Humor
observation-type: concentration at 90 min (ng/g)

[
  {
    "compound": "C=C(C)C1CCC(C)=CC1c1c(OC(=O)[C@@H](NC(=O)CCC(=O)O)C(C)C)cc(CCCCC)cc1OC(=O)[C@@H](NC(=O)CCC(=O)O)C(C)C (stereo partly shown) [CBD-Val-HS]",
    "value": 24.6
  }
]

src = patent US11337950B2
